molecular target: CDK12 (nuclear staining in CAL-120 cells) (Homo sapiens); construct: endogenous in cells; host or cells: CAL-120 human breast cancer cells (DSMZ ACC 459); test: CDK12 nuclear protein level: immunofluorescence/high content analysis (CAL-120); type: cell-based; details: ratio of IC50 CDK12 high ATP kinase assay to DC50 CDK12 degradation (IF, CAL-120)
Parameter measured: (IC50 CDK12 high ATP) to (Degradation DC50 CDK12) ratio

# example entries with known answers
Fc1cccc2[nH]c(CNc3nc(N4CCOCC4)nc4c(Br)cnn34)nc12 [Example 97]
2411
N=S1(=O)CCN(c2nc(NCc3nc4ccccc4[nH]3)n3ncc(Br)c3n2)CC1 [Example 145]
751
Fc1cc2nc(CNc3nc(N4CC5CCC(C4)N5)nc4c(Br)cnn34)[nH]c2cc1F [Example 355]
178
COc1cccc2[nH]c(CNc3nc(N4C[C@@H]5CCCN[C@@H]5C4)nc4c(C5CC5)cnn34)nc12 [Example 214]
2062
N#Cc1cccc(-c2c[nH]c(CNc3nc(N4CCOCC4)nc4c(Br)cnn34)n2)c1 [Example 42]
324
C[C@@H]1COCCN1c1nc(NCc2nc3ccccc3[nH]2)n2ncc(Br)c2n1 [Example 56]
352

A = CC(C)(O)COc1nc(NCc2nc3ccccc3[nH]2)n2ncc(Br)c2n1 [Example 398]
B = OC[C@@H]1CCCCN1c1nc(NCc2nc3c(F)cccc3[nH]2)n2ncc(C3CC3)c2n1 [Example 189]
C = Clc1ccc(-c2nnc(CNc3nc(N4CCOCC4)nc4c(Br)cnn34)[nH]2)cc1 [Example 45]
// ascending sort on recorded (IC50 CDK12 high ATP) to (Degradation DC50 CDK12) ratio # answer = labels listed in requested order B, C, A

P = C[C@@H]1CN(c2nc(NCc3nc4ccccc4[nH]3)n3ncc(Br)c3n2)C[C@H](C)O1 [Example 73]
Q = Cc1ccnc2[nH]c(CNc3nc(N4CCN(C)CC4)nc4c(C(C)C)cnn34)nc12 [Example 32]
Pick one: P or Q . Which one has the lower reported (IC50 CDK12 high ATP) to (Degradation DC50 CDK12) ratio? Identify your pick by its label. P

====

target: CDK12 (nuclear staining in CAL-120 cells) (Homo sapiens); construct: endogenous in cells; host or cells: CAL-120 human breast cancer cells (DSMZ ACC 459); assay: CDK12 nuclear protein level: immunofluorescence/high content analysis (CAL-120); assay type: cell-based; details: ratio of IC50 CDK12 high ATP kinase assay to DC50 CDK12 degradation (IF, CAL-120)
Parameter measured: (IC50 CDK12 high ATP) to (Degradation DC50 CDK12) ratio

CCc1cnn2c(NCc3nc4ccccc4[nH]3)nc(N3CCOCC3)nc12
829
OCC1COCCN1c1nc(NCc2nc3ccccc3[nH]2)n2ncc(Br)c2n1 (centres unmarked)
727

I = CC(=O)NCCCc1cccc2[nH]c(CNc3nc(N4CCOCC4)nc4c(Br)cnn34)nc12.O=CO
II = Cc1ccnc2[nH]c(CNc3nc(N4CCOCC4)nc4c(C(C)C)cnn34)nc12
Hi there! Just curious which has the higher (IC50 CDK12 high ATP) to (Degradation DC50 CDK12) ratio between I and II . Identify your pick by its label. II

====

biological target: CDK12 (nuclear staining in CAL-120 cells) (Homo sapiens); construct: endogenous in cells; host or cells: CAL-120 human breast cancer cells (DSMZ ACC 459); assay: CDK12 nuclear protein level: immunofluorescence/high content analysis (CAL-120); type: cell-based; details: CAL-120 cells, 24 h, immunofluorescence; 50% reduction of nuclear CDK12 staining intensity; median; read-out: CDK12 degradation IF, DC50- [mol/l] (median)
Parameter measured: DC50 (nM)

Brc1cnn2c(NCc3nc4ccccc4[nH]3)nc(N3C[C@H]4CNC[C@H]4C3)nc12 [Example 283]
6.97

1 = Cc1ccc2[nH]c(CNc3nc(N4C[C@H]5C[C@@H]4CO5)nc4c(Br)cnn34)nc2c1 [Example 192]
2 = OCCNc1nc(NCc2nc3ccccc3[nH]2)n2ncc(Br)c2n1 [Example 228]
3 = FC(F)(F)Cc1cnn2c(NCc3nc4ccccc4[nH]3)nc(N3CCOCC3)nc12.O=CO [Example 265]
List from greatest to least DC50. # answer = labels listed in requested order 2, 3, 1

====

molecular target: CYCLIN K (nuclear staining in CAL-120 cells) (Homo sapiens); construct: endogenous in cells; host or cells: CAL-120 human breast cancer cells (DSMZ ACC 459); assay: CYCLIN K nuclear protein level: immunofluorescence high content analysis (CAL-120); assay type: cell-based; details: 24 h, 50% reduction of nuclear CCNK staining intensity, median, read-out: CYCLIN K degradation IF, DC50-[mol/l] (median)
Sequence (O75909 whole entry): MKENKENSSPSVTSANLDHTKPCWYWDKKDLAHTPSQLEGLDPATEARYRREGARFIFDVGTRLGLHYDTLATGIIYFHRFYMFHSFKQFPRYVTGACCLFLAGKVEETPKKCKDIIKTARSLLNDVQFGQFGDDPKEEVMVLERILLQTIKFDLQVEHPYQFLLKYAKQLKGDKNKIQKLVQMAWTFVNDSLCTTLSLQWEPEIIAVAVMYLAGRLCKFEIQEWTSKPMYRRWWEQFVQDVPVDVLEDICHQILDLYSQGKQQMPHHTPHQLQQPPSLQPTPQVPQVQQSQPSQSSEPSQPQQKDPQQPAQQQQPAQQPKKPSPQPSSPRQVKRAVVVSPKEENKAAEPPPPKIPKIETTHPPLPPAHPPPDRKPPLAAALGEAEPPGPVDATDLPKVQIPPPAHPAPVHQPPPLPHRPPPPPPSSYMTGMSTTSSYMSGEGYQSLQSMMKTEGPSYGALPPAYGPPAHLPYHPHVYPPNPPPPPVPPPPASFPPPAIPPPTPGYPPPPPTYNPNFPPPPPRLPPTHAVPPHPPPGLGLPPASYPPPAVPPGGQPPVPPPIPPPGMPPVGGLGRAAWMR
Sequence (Q9NYV4 whole entry partner): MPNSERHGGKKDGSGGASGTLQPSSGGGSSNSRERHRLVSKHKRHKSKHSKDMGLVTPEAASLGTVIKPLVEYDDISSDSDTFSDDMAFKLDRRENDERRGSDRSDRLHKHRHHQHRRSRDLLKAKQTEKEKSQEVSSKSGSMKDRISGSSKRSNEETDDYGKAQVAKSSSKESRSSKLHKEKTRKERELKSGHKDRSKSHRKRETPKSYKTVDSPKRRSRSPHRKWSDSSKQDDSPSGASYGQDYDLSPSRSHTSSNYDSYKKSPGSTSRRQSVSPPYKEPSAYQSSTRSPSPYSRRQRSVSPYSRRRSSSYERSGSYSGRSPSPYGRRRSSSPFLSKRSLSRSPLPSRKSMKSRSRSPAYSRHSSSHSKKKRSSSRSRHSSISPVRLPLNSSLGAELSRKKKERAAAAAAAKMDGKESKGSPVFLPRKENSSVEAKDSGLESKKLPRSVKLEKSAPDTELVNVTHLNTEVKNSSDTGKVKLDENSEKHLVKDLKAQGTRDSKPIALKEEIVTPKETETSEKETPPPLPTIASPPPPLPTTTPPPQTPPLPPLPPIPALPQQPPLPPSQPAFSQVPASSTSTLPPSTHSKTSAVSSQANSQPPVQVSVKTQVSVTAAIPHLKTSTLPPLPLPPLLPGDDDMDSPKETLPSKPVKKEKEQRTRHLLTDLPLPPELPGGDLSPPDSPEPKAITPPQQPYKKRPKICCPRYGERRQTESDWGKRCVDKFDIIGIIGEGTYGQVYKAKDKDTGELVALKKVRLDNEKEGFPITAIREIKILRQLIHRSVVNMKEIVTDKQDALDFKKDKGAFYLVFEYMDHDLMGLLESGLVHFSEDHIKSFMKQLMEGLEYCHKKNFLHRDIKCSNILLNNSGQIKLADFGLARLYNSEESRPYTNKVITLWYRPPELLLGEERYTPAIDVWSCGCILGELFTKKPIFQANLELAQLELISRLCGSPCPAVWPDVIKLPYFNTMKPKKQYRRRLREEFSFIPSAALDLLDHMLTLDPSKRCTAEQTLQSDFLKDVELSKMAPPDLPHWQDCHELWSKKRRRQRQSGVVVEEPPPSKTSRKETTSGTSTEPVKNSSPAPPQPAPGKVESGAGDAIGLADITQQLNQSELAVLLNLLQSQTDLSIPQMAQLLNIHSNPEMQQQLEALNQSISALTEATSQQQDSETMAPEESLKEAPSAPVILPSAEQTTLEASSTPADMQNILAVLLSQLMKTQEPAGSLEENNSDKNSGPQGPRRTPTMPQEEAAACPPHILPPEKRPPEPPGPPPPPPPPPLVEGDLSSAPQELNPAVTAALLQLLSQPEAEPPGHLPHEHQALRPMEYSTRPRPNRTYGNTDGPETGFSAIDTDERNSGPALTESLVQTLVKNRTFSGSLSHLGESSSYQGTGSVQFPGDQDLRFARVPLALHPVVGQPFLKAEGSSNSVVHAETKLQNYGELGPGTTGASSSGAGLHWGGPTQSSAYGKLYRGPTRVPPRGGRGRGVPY
Parameter measured: DC50 (nM)

Cc1ccc2[nH]c(CNc3nc(N4CCOCC4)nc4c(Br)cnn34)nc2c1
0.119
Fc1c(Cl)ccc2[nH]c(CNc3nc(N4CCOCC4)nc4c(C5CC5)cnn34)nc12
0.258
Fc1c(Cl)ccc2[nH]c(CNc3nc(N4CC5CCC(C4)N5)nc4c(Br)cnn34)nc12
0.22
O=C(O)C(F)(F)F.c1ccc2[nH]c(CNc3nc(N4CCOCC4)nc4c(-c5cncs5)cnn34)nc2c1
2.25
C[C@@H]1CN(c2nc(NCc3nc4c(F)cccc4[nH]3)n3ncc(C4CC4)c3n2)C[C@H](C)N1
0.16

1 = c1ccc2[nH]c(CNc3nc(N4CCOCC4)nc4c(-c5ccncc5)cnn34)nc2c1
2 = Brc1cnn2c(NCc3nc4ccccc4[nH]3)nc(OC3CCNCC3)nc12
Hi there! Just curious which has the higher DC50 between 1 and 2 . Identify your pick by its label. 2

A = CN(CCO)c1nc(NCc2nc3ccccc3[nH]2)n2ncc(Br)c2n1
B = C[C@@H]1CN(c2nc(NCc3nc4cc(F)ccc4[nH]3)n3ncc(C4CC4)c3n2)C[C@H](C)N1
Hi there! Just curious which has the higher DC50 between A and B . Identify your pick by its label. A
(A: 19.7 nM, B: 0.147 nM)

====

This listing pairs molecules with measured IC50.
target: CDK9/CycT1 (Homo sapiens, UniProt P50750); construct: Recombinant full-length His-tagged human CDK9 and CycT1; purchased Life Technologies PV4131; host or cells: insect cells; test: CDK9/CycT1 high ATP kinase assay (TR-FRET, 2 mM ATP); type: biochemical; conditions: 2 mM ATP (high ATP); median; read-out: CDK9/CyclinT1, 2 mM ATP (high ATP), IC50 (median)
Sequence (P50750 whole entry): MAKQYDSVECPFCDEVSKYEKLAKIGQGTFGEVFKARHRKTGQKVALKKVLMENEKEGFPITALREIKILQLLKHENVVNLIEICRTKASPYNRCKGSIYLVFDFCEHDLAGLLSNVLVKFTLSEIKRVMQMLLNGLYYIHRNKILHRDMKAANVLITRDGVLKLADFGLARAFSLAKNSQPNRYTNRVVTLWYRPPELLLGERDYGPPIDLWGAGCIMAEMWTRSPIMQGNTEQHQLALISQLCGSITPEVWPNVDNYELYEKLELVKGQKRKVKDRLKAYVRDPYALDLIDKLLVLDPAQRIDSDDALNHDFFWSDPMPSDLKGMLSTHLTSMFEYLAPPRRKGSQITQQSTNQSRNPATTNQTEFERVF
Sequence (O60563 whole entry partner): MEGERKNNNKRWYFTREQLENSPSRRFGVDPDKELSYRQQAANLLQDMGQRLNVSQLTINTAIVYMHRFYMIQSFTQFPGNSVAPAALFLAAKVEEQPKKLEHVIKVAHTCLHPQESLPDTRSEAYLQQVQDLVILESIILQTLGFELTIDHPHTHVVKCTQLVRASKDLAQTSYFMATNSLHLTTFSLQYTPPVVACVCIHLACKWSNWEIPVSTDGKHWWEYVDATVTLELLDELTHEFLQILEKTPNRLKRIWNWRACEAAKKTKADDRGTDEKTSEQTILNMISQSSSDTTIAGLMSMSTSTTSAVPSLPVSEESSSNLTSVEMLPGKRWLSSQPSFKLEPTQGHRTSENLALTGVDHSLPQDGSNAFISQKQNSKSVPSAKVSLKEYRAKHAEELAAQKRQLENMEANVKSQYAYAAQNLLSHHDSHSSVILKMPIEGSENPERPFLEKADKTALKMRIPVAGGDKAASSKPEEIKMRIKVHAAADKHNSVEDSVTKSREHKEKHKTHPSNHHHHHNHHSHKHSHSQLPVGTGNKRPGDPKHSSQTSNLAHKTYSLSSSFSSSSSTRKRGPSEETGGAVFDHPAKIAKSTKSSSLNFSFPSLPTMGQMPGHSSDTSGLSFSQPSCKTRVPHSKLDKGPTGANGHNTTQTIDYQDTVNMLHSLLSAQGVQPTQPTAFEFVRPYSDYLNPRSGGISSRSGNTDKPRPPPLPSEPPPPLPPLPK

# example entries with known answers
CC(C)c1cnn2c(NCc3nc4ccccc4[nH]3)nc(N3CCCOCC3)nc12 [Example 8]
> 20 µM
Clc1cc2nc(CNc3nc(N4CCOCC4)nc4c(-c5cncs5)cnn34)[nH]c2cc1Cl [Example 443]
> 20 µM
CC1CN(C)CCN1c1nc(NCc2nc3ccccc3[nH]2)n2ncc(Br)c2n1 (single isomer, unassigned; enantiomer 2) [Example 261]
> 20 µM
Cc1cnn2c(NCc3nc4ccccc4[nH]3)nc(N3CCOCC3)nc12 [Example 393]
> 20 µM
Brc1cnn2c(NCc3nc4ccncc4[nH]3)nc(N3CCOCC3)nc12 [Example 22]
> 18.4 µM
C[C@@H]1CN(c2nc(NCc3nc4c(F)c(F)ccc4[nH]3)n3ncc(C4CC4)c3n2)C[C@H](C)N1 [Example 170]
> 20 µM
CCNc1nc(NCc2ncc(-c3ccccc3)[nH]2)n2ncc(C(C)C)c2n1 [Example 34]
> 20 µM
CCC1COCCN1c1nc(NCc2nc3ccccc3[nH]2)n2ncc(Br)c2n1 (stereo not shown) [Example 116]
> 20 µM
Brc1cnn2c(NCc3nc4ccccc4[nH]3)nc(N3CC4CCC3CO4)nc12 (stereo not shown) [Example 352]
16.8 µM
CC(C)c1cnn2c(NCc3nc4ccccc4[nH]3)nc(N3CCOC[C@H]3C)nc12 [Example 7]
> 20 µM

IC50 measured on Cc1cc2nc(CNc3nc(N4CCN(C)CC4)nc4c(C5CC5)cnn34)[nH]c2cc1C [Example 312] = > 20 µM

IC50 measured on C[C@@H]1CN(c2nc(NCc3nc4ccccc4[nH]3)n3ncc(Br)c3n2)C[C@H](C)O1 [Example 73] = 9.38 µM

IC50 measured on Fc1ccc2[nH]c(CNc3nc(N4CCOCC4)nc4c(C5CCCC5)cnn34)nc2c1F [Example 262] = > 20 µM

IC50 measured on CN(CCO)c1nc(NCc2nc3ccccc3[nH]2)n2ncc(Br)c2n1 [Example 237] = > 20 µM

IC50 measured on OC1(C(F)(F)F)CCN(c2nc(NCc3nc4ccccc4[nH]3)n3ncc(Br)c3n2)C1 (stereo not shown) [Example 200] = > 20 µM

IC50 measured on Clc1ccccc1-c1cnc(CNc2nc(N3CCOCC3)nc3c(Br)cnn23)[nH]1 [Example 96] = 9.3 µM

IC50 measured on COc1cccc2[nH]c(CNc3nc(N4CCN(C)CC4)nc4c(C5CC5)cnn34)nc12 [Example 197] = > 20 µM
